- assay-system: Cytochrome P450 2C19 (Homo sapiens) (UniProt P33261)
- Sequence (P33261 whole entry, looked up): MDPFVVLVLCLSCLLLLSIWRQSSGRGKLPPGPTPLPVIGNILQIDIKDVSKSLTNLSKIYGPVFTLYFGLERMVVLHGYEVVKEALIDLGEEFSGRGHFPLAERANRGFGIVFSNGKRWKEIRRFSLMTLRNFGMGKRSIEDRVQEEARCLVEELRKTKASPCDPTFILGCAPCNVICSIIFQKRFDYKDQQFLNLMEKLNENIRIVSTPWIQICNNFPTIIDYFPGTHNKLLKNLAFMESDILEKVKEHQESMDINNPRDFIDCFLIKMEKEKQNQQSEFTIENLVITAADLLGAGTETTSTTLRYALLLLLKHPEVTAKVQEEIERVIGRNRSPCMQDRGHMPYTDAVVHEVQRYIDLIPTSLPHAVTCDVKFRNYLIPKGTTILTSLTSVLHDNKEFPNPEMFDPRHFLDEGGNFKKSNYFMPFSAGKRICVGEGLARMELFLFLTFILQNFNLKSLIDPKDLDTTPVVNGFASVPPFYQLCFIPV
- method-description: Cytochrome P450 Family 2 Subfamily C Member 19 (CYP2C19) small molecule antagonists: luciferase reporter qHTS assay (AID 1671197); also: nearly all actives have a fitted effect of over 65% in size
- condition-notes: P450-Glo CYP2C19 enzyme, luciferin luminescence, 1 h; series mostly up to 115 µM
Inconclusive results are not listed. Activity calls are given as the source filed them. Calls follow the shape of the dose curve; as a rule, active = well fitted inhibition curve with a large enough effect in the repeat runs; inconclusive = weak or mixed curves; inactive = no such curve, though single readings can be large or run the other way.
Assign a class; possible classes are Yes = active, No = inactive

OCC1CC=CCC1 (stereo not drawn) ... No
N#C/C(=C1\SCC(c2ccccc2Cl)S1)n1ccnc1 (stereo not drawn) ... Yes

Here is the next item to consider.
input: // outcome(item) with item = O=C(CCC1CCN(Cc2ccccc2)CC1)c1ccc2c(c1)NCCCC2
output: No
